Ref: the RepoRT retention time repository

# methodDescription: Waters ACQUITY UPLC BEH C18, 100 × 2.1 mm, 1.7 µm, 40 °C, 0.3 to 0.4 mL/min, estimated dead time 0.63 min; A: water + 0.1% formic acid; B: methanol + 0.1% formic acid; gradient (min/%B) 0/0.5 0.1/0.5 10/80 10.1/99.5 12/99.5
# conditionDetails: stereoisomer not certain
assayMetric: LC retention time (min)

COc1c(CC=C(C)C)c(O)cc2c1C1Oc3cc(O)c(CC=C(C)C)cc3C1CO2 (stereo unspecified) : 9.29
CC(C)=CCCC(C)(O)C1CCC2(C)C1C(O)CC1C3(C)CCC(O)C(C)(C)C3C(OC3OC(CO)C(O)C(O)C3OC3OC(C)C(O)C(O)C3O)CC12C (stereo unspecified) : 6.25
O=c1ccc2ccc(O)c(O)c2o1 : 3.65
CC1CCC2(NC1)OC1CC3C4CC=C5CC(OC6OC(CO)C(O)C(OC7OC(CO)C(O)C(O)C7O)C6OC6OC(C)C(O)C(O)C6O)CCC5(C)C4CCC3(C)C1C2C (stereo unspecified) : 4.62
CC(C)=CCc1c(O)c(-c2cc(-c3cc(=O)c4c(O)cc(O)cc4o3)ccc2O)c2oc(-c3ccc(O)cc3)cc(=O)c2c1O : 7.57
CC(C)=CCCC(C)(O)C1CCC2(C)C1C(O)CC1C3(C)CCC(O)C(C)(C)C3C(OC3OC(CO)C(O)C(O)C3OC3OC(CO)C(O)C(O)C3O)CC12C (stereo unspecified) : 5.94
COc1cc2c3c(c1OC)-c1cc4c(cc1CC3N(C)CC2)OCO4 (stereo unspecified) : 4.89
COc1cc(O)c2c(c1)OC(c1ccc(O)cc1)CC2=O (stereo unspecified) : 7.42
O=C(CCc1ccc(O)cc1)c1c(O)cc(O)cc1OC1OC(CO)C(O)C(O)C1O (stereo unspecified) : 4.73
O=c1c(-c2ccc(O)c(O)c2)coc2cc(O)ccc12 : 4.63

I: C=CC1C(OC2OC(CO)C(O)C(O)C2O)OC(O)=C2C(=O)N3CCc4c([nH]c5ccccc45)C3=CC21 (stereo unspecified)
II: CC(C)C(=O)OC(CC(=O)[O-])C[N+](C)(C)C (stereo unspecified)
III: CC(C)=CCc1c(O)cc(O)c2c1OC(c1ccc(O)cc1)CC2=O (stereo unspecified)
query: Sort these compounds on LC retention time so the largest reading comes first. Arrange the labels as the request states and list them.
result: III, I, II

1: COc1cc(-c2cc(=O)c3c(O)c(C4OC(CO)C(O)C(O)C4O)c(OC)cc3o2)ccc1O (stereo unspecified)
2: CN1c2cc(O)c(N=NC(N)=O)cc2CC1S(=O)(=O)O (stereo unspecified)
query: Could you point out whether the larger LC retention time belongs to 1 or to 2 ? # reply format: chosen label
result: 1

P: COc1cc(CC2COC(c3ccc(O)c(OC)c3)C2CO)ccc1O (stereo unspecified)
Q: CS(=O)CCCCCCC#N (stereo unspecified)
R: Nc1nc2c(ncn2C2OC(CO)C(O)C2O)c(=O)[nH]1 (stereo unspecified)
query: Order the records by LC retention time, with each subsequent value no larger than the one before. Returns: the labels listed in the requested order.
result: P, Q, R
